Listed here: items and their measured IC50.
Tested on: MCF7
Assay: Cytotoxicity against human MCF7 cells after 6 days by SRB assay
Assay type: functional, cell-based
Settings: MCF7, 144 h

compound	IC50
CC(C)[C@H](O)[C@H](O)C[C@@H](C)[C@H]1[C@@H](O[C@@H]2O[C@H](CO)[C@@H](O)[C@H](O)[C@H]2O)C[C@H]2[C@@H]3CC(=O)[C@H]4C[C@@H](O[C@@H]5O[C@H](CO[C@@H]6O[C@H](CO)[C@@H](O)[C@H](O)[C@H]6O)[C@@H](O)[C@H](O)[C@H]5O)CC[C@]4(C)[C@H]3CC[C@]12C	> 50 µg/mL
CC(C)[C@H](O)[C@H](O)C[C@@H](C)[C@H]1[C@@H](O[C@@H]2O[C@H](CO)[C@@H](O)[C@H](O)[C@H]2O)C[C@H]2[C@@H]3C[C@@H](O)[C@H]4C[C@@H](O[C@@H]5O[C@H](CO[C@@H]6O[C@H](CO)[C@@H](O)[C@H](O)[C@H]6O)[C@@H](O)[C@H](O)[C@H]5O)CC[C@]4(C)[C@H]3CC[C@]12C [CHAMAELIROSIDE E]	> 50 µg/mL
CC(=O)OC[C@H](C)CC[C@@H](OC(C)=O)[C@@H](C)[C@H]1[C@@H](OC(C)=O)C[C@H]2[C@@H]3CC=C4C[C@@H](OC(C)=O)CC[C@]4(C)[C@H]3CC[C@]12C	7.5 µg/mL

====

Tested on: K562
Test: Cytotoxicity against human K562 cells after 6 days by MTS assay
Details: K562, 144 h
Listed here: items and their measured IC50.

compound	tested on	IC50
CC(=O)O[C@H]1CC[C@@]2(C)C(=CC[C@H]3[C@@H]4C[C@H](OC(C)=O)[C@H]([C@H](C)C(=O)CC[C@@H](C)CO)[C@@]4(C)CC[C@@H]32)C1	K562	1.7 µg/mL
CC(=O)O[C@@H]1[C@H](O)[C@@H](O)[C@H](O[C@@H](C(C)C)[C@H](O)C[C@@H](C)[C@H]2[C@@H](O)C[C@H]3[C@@H]4C[C@@H](O)[C@H]5C[C@@H](O[C@@H]6O[C@H](CO[C@@H]7O[C@H](CO)[C@@H](O)[C@H](O)[C@H]7O)[C@@H](O)[C@H](O)[C@H]6O)CC[C@]5(C)[C@H]4CC[C@]23C)O[C@@H]1C [CHAMAELIROSIDE C]	K562	> 50 µg/mL
CC(C)[C@H](O[C@@H]1O[C@H](C)[C@H](O)[C@H](O)[C@H]1O)[C@H](O)C[C@@H](C)[C@H]1[C@@H](O)C[C@H]2[C@@H]3CC(=O)[C@H]4C[C@@H](O[C@@H]5O[C@H](CO[C@@H]6O[C@H](CO)[C@@H](O)[C@H](O)[C@H]6O)[C@@H](O)[C@H](O)[C@H]5O)CC[C@]4(C)[C@H]3CC[C@]12C	K562	> 50 µg/mL
CC(C)[C@H](O)[C@H](O)C[C@@H](C)[C@H]1[C@@H](O)C[C@H]2[C@@H]3C[C@@H](O)[C@H]4C[C@@H](O[C@@H]5O[C@H](CO[C@@H]6O[C@H](CO)[C@@H](O)[C@H](O)[C@H]6O)[C@@H](O)[C@H](O)[C@H]5O)CC[C@]4(C)[C@H]3CC[C@]12C [CHAMAELIROSIDE A]	K562	> 50 µg/mL
